Every entry's value here was drawn from ChEMBL document CHEMBL3430912.

tested on: Leishmania donovani; assay: GSK_TCAKS: pIC50 Leishmania donovani Imaging: THP-1 Host Macrophages. Assay plates (384-well) were prepared by adding 250nL of compound to each well. For single shot assay, the final compound concentration was 5 uM. […] Automated image analysis was performed with a script developed on Acapella High Content Imaging and Analysis Software (PerkinElmer). Output: THP-1 cell count were reported for each well.; format: functional, organism-based, Homo sapiens
pIC50: −log10 of the molar value.
measured-metric: pIC50

In [3]: df
Out[3]:
                                   compound  measured_value
0  COc1cccc(C(=O)[C@H]2C[C@@H]2CN(Cc2ccccn2)Cc2ccccn2)c1          < 4.30
1       N#Cc1cc([N+](=O)[O-])ccc1NC1CCCCCC1          < 4.30
2         Cn1nccc1NC(=O)Cn1ccc(-c2ccncc2)n1          < 4.30
3  CN(C)CCN(C)Cc1ccc(F)cc1NS(=O)(=O)c1ccc(Cl)c(Cl)c1            4.50
4  COc1ccc(Oc2ccc(C(C)N(C)c3ncc4c(N)nc(N)nc4n3)cc2)cc1 (stereo not given)            4.80
5  O=C(NCCCn1cnc2ccccc21)c1ccc(NC(=O)c2ccco2)cc1          < 4.30
6  Cc1nn(-c2nc3ccccc3s2)c2c1C(c1ccc(OCC(N)=O)cc1)SCC(=O)N2 (stereo not given)          < 4.30
7  O=C(Nc1ccc(C(=O)N2CCCC2c2ccc3c(c2)OCCCO3)cc1)c1ccco1 (stereo not given)          < 4.30
8  Cc1cc2cncn2c(C2CCCCN2C(=O)c2cccs2)n1 (stereo not given)          < 4.30
9  CC(C)COC(=O)Nc1ccc(N2CCC(CNS(=O)(=O)c3ccccc3)CC2)c(F)c1          < 4.30

###

test system: Leishmania donovani; test: GSK_TCAKS: pIC50 Leishmania donovani Imaging: Infected Macrophages. Assay plates (384-well) were prepared by adding 250nL of compound to each well. For single shot assay, the final compound concentration was 5 uM. […] Automated image analysis was performed with a script developed on Acapella High Content Imaging and Analysis Software (PerkinElmer). Output: Percent of infected macrophage cells were reported for each well.; format: functional, organism-based, Homo sapiens; settings: THP-1
log10(IC50) values by entry
measured-metric: log10(IC50) (log10 of the value in µM)

>>> df
                                smiles_repr         assay_target  measured_value
0      Cc1c(Nc2cc(C3CC3)n[nH]2)ccc(C#N)c1Cl  Leishmania donovani            1.60
1      c1ccc(-c2nc(NCc3ccco3)c3ccccc3n2)nc1  Leishmania donovani            0.40
2  CCOc1ccc2nc(NC(=O)c3ccc([N+](=O)[O-])s3)sc2c1  Leishmania donovani            0.80
3         CCOc1ccc(NC(=O)C=Cc2ccc(CC)o2)cc1  Leishmania donovani            1.70
4   O=C1c2cnc(N3CCCC3)nc2CN1c1ccc2c(c1)OCO2  Leishmania donovani            1.00
5  N#Cc1cc(-c2ccnc(Nc3cccc(CN4CCOCC4)c3)n2)ccc1NCCN  Leishmania donovani            0.20

###

system: Trypanosoma cruzi; assay: GSK_TCAKS: pIC50 Trypanosoma cruzi Imaging: Infected Cells. […] Cells were then washed once with PBS before infection. T. cruzi trypomastigotes, collected at days 5 to 8 after infection from LLC-MK2 parasite infected cultures, were allowed to swim out for 4h at 37C from a centrifuged pellet (2,500 rpm/10 min/room temperature). Trypomastigotes were then collected and counted in a CASY Cell Counter. Trypomastigotes, in supplemented DMEM, were added to H9c2 cultures in a multiplicity of infection of 1 and incubated for 18 h. Cells were washed once with PBS before incubation of the infected H9c2 monolayer with trypsin (Life-Technologies) to detach cells from the flask. Cells were counted in a CASY Cell Counter using a 150 um capillary and their density set at 5 * 10^4 cells per mL in supplemented assay DMEM. Infected H9c2 were dispensed into 384-well poly-lysine coated assay plates at 50uL per well using a Multidrop Combi dispenser. After seeding them, the plates were incubated at 37C, 5% CO2 for 72h. Cultures were then fixed and stained by addition of 50 uL of a solution containing 8% formaldehyde and 4 uM DRAQ5 DNA dye (BioStatus, UK) per well. […] Five images were collected per well for reliable statistical analysis. Automated image analysis was performed with a script developed on Acapella High Content Imaging and Analysis Software (PerkinElmer). Output: percentage of infected cells per well as a second infection marker.; type: functional, organism-based, Rattus norvegicus; conditions: H9c2, 4 h
Class key for IC50 values: lower range = under 300 nM, middle range = from 300 nM up to 4000 nM, upper range = 4000 nM and over

>>> df
                                    compound      category
 0    Cc1cc(Nc2cc(C3CC3)[nH]n2)nc(N2CCCC2)n1   lower range
 1      COc1ccc(C(C)(C)C)cc1S(=O)(=O)n1ccnc1   lower range
 2  Cc1nc(N2CCC(C(=O)N3CCC(O)(c4cccnc4)CC3)CC2)nc2ccc(C(C)C)cc12  middle range
 3               c1ccc(Nc2nc3ccccc3[nH]2)nc1   upper range
 4  Cc1ncsc1CNc1cnc(-c2ccc3c(c2)OCCO3)c(-c2cnn(C)c2)c1   upper range
 5  O=C1NCc2cccc(Nc3nc(N[C@H]4CC[C@H](O)CC4)ncc3Br)c21  middle range
 6  NC(=O)c1cc(NC(=O)c2ccccc2COc2ccccc2)ccc1Cl   upper range
 7           Oc1cccnc1-c1nc(Cc2ccccc2)n[nH]1   upper range
 8  O=C(Nc1ccc(-c2nc3ccccc3c(=O)[nH]2)cc1)c1cccs1   upper range
 9  Cc1ccc2c(c1)SC(C(=O)Nc1nnc(-c3ccccn3)[nH]1)C2 (configuration not stated)   upper range
10  Cc1c(C#N)c([N+](=O)[O-])nn1Cc1cccc(Cl)c1Cl   lower range
11      COc1ccc(C(=O)Nc2ccc(NC(=O)CO)cc2)cc1   upper range
12      CN1CCCN(C(=O)c2ccc(N3CCCC3)cc2Cl)CC1  middle range
13  c1cncc(CN(Cc2ccco2)Cc2c[nH]nc2-c2cccs2)c1   lower range
14  CNc1cc(Cn2c(C(=O)c3cc(C)cc(Cl)c3)c(C(C)C)c(=O)[nH]c2=O)ccn1   lower range
15  CC(C)Nc1nccc(-c2c(-c3ccc(F)cc3)ncn2C2CCOCC2)n1  middle range
16         N#Cc1nc(C=Cc2ccccc2)oc1NCc1cccnc1  middle range
17  COc1ccc2nccc(NC(=O)C3(OC)CCN(CC(O)c4ccc5c(c4)OCCO5)CC3)c2n1 (configuration not stated)  middle range
18  O=C1NCCn2ccc(Nc3nc(N[C@H]4CC[C@H](O)CC4)ncc3Cl)c21   upper range
19  CC1(C)CCC(=Cc2ccc(Cl)cc2)CC1(O)Cn1ccnc1 (configuration not stated)   lower range
20  CN(C)c1ccc(-c2cc3nccnc3c(OC[C@H]3CCCNC3)n2)cn1   upper range

###

tested on: Leishmania donovani; experiment: GSK_TCAKS: pIC50 Leishmania donovani viability assay using fluorescence intensity. Assay plates (1536-well) were prepared by adding 30nL per well of compound. For single shot assay, the final compound concentration was 5uM. […] Briefly, eGFP LdBOB axenic amastigotes were harvested, fixed and counted in a CASY cell counter (Roche-Applied Science). A final concentration of 1.5 * 10^5 cells per well were prepared in amastigote media containing 500 U/mL penicillin/streptomycin (Invitrogen) and 6uL was dispensed to each experimental well using a Multidrop Combi dispenser (Thermo Scientific). 6uL of assay media was dispensed to control columns used as reference for 100% compound response. Following incubation for 72 h at 37C, 5% CO2, 2 uL of resazurin was added to each well at a final concentration of 0.5 mM in phosphate buffered saline (PBS) with IGEPAL (Sigma-Aldrich), 0.05% (v/v).; assay type: functional, organism-based
pIC50: −log10 of the molar value.
measured-metric: pIC50

>>> print(df.to_string())
                                   molecule         assay_target  result_modifier  measured_value
0  COc1ccc2nccc(NC(=O)C3(OC)CCN(CC(O)c4ccc5c(c4)OCCO5)CC3)c2n1 (stereo not given)  Leishmania donovani                =            5.00
1  COCCn1c(-c2ccc3c(c2)OCO3)cnc1NCc1ccccc1OC  Leishmania donovani                =            4.90
2    CCN(CC)c1ccc(S(=O)(=O)N(CC)CC)c2nonc12  Leishmania donovani                =            5.20
3  COc1ccc(OC)c(S(=O)(=O)N(Cc2c(F)cccc2F)[C@@H]2CCN(C#N)C2)c1  Leishmania donovani                =            4.80
4  c1ccc(CCNCc2cncc3nc(-c4cnccn4)n(C4CCCCC4)c23)cc1  Leishmania donovani                <            4.30
5  N#CN1CC[C@@H](NC(=O)Nc2ccccc2Oc2ccccc2)C1  Leishmania donovani                =            5.50
6  CCOc1cnn(C)c(=O)c1Nc1ccc(C(=O)NCc2ccc(F)cc2)cc1  Leishmania donovani                =            4.50
7  CS(=O)(=O)c1ccc(Nc2nccc(Nc3n[nH]c4ccc(F)cc34)n2)c(F)c1  Leishmania donovani                =            4.90
8  Cc1ccc2c(c1)-c1onc(C(=O)N3CCCCC3c3cccnc3)c1CO2 (stereo not given)  Leishmania donovani                =            4.50
9  Cc1ccc(C)c(OC2CCN(C(=O)C(C)n3ccnc3)CC2)c1 (stereo not given)  Leishmania donovani                =            5.60
